Data origin, for the record: the supplement of paper PMC7125110

B1: glmS ribozyme (parent)
chain: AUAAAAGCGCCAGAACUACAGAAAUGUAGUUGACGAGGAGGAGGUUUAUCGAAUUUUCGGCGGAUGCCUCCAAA

- Variants of: B1
- test description: self-cleavage kobs at 640 uM GlcN6P; higher = faster cleavage; RNA array
- experimental parameters: with glucosamine-6-phosphate
Variants at the floor of the assay were thinned out.
Parameter: self-cleavage kobs at 640 uM GlcN6P. Scope: all listed entries.
endpoint name: self-cleavage kobs at 640 uM GlcN6P (s⁻¹)

- residue string: "AUAAAAGCGCCAAAACUACAGAAAUGUAGUUGACGAGGAGGAGGUUUAUCGAGUUUUCGGCGGAUACCUCCAAA"
  units of measure: "s⁻¹"
  relation symbol: "="
  result number: "6.41e-05"
- residue string: "AUAAAAGCGCCAGAACUACAGAAAUUUAGUCGACGAGGAGGAGGUUAAUCGAAUUUUCGGCGGGUGCCUCCAAA"
  units of measure: "s⁻¹"
  relation symbol: "="
  result number: 0.000213
- residue string: "AUAAAAGCGCCAGAAGUACAGAAAUGUAGUUGUCGAUGAGGAGGUUUAUCGAAUUUUCGGCGGAUGCGUCUAAA"
  units of measure: "s⁻¹"
  relation symbol: "="
  result number: "8.54e-05"
- residue string: "AUAAAAGCGCCAGAACUACAGAAAUGUAGUUGACGAGGAAGAGGUUUAUCGAAUUUUCGGCGGAAGCCUCCAAA"
  units of measure: "s⁻¹"
  relation symbol: "="
  result number: 0.000213
- residue string: "AUAAAAGCUCCAGAACUACAGAAAUGUAGUUGACGAGGAAGAGGUUUAUCGAAUUUUCGGGGGAUGCCUCCAAA"
  units of measure: "s⁻¹"
  relation symbol: "<"
  result number: "1e-05"
- residue string: "AUAAAAGCGCCAGGACUACAGAAAUGUAGUUGACGAGGAGGAGGUUUAUCGUAUUUUCGGCGGAUGUCUCCAAA"
  units of measure: "s⁻¹"
  relation symbol: "="
  result number: "7.45e-05"
- residue string: "AUAAAAGCGCCAGAACUACAGAAAUGUAGUUGACGAGGAGGUGGUUUAUCGAAUUUUCGGCGAAUGCCUCCAAA"
  units of measure: "s⁻¹"
  relation symbol: "<"
  result number: "1e-05"
- residue string: "AUAAAAGCGCCAGAACUACAGAAAUGUAGUUGACGAGGAGGAGGUUUAUCGAAUUUUCGGCGAAUGCCUGGAAA"
  units of measure: "s⁻¹"
  relation symbol: "="
  result number: "4.83e-05"
- residue string: "AUAAAAGCGCCAGAACUACAGAAAUGUAGUUGACGAGGAGGAGGUUUAUCGCAUUUUCGACGGAUACCUCCAAA"
  units of measure: "s⁻¹"
  relation symbol: "<"
  result number: "1e-05"
- residue string: "AUAAAAGCGCCAGAACUACAGAAAUGUAGUUGACGAGGAGGAGGUUUAUCGAAUUUUCUGCGGAGGCCUCCAAA"
  units of measure: "s⁻¹"
  relation symbol: "<"
  result number: "1e-05"
- residue string: "AUAAAAGCGCCAGAACUACAGAAAUGUAGUUGACGAGGAGGAAGUUUAUCUAAUUUUCGGCGCGUGCCUCCAAA"
  units of measure: "s⁻¹"
  relation symbol: "<"
  result number: "1e-05"
- residue string: "AUAAAAGCGCCAGUACUACAGAAAUGUAGUUGACGAGGAGGAGGUUUAUUGAAUUUUUGUCGGAUGCCUCCAAA"
  units of measure: "s⁻¹"
  relation symbol: "<"
  result number: "1e-05"
- residue string: "AUAAAAGCGCCAAAAGUACAGAAAUGUAGUUGACGAGGAGGAGGUUUAUCGAAUUUUCGGCGGAUGCCUCCAAA"
  units of measure: "s⁻¹"
  relation symbol: "="
  result number: "5.02e-05"
- residue string: "AUAAAAGCGCCAGAACUACAGAAAUGUAGGUGACGAGGAGGAGGUUUAUCGAAUUAUCGGCGGAUGCGUCCAAA"
  units of measure: "s⁻¹"
  relation symbol: "="
  result number: "5.24e-05"
- residue string: "AUAAAAGCGCUUGAACUACAGAAAUGUAGUUGAAGAGGAGGAGGUUUAUCGAAUUUUCGGCGGAUCCCUCCAAA"
  units of measure: "s⁻¹"
  relation symbol: "<"
  result number: "1e-05"
- residue string: "AUAAAAGCGCCAGGACUACAGAAAUGUACUUGCCGAGGAGGAGGUUUAUCGAAUUUUCGGCGGAUGCCUCCAAA"
  units of measure: "s⁻¹"
  relation symbol: "<"
  result number: "1e-05"
- residue string: "AUAAAAGCGCCGGAACUACAGAAAUGUAGUUGACGAGGAGGAGGUUUAUCGAAUUUUCGGCGACUGCCUCCAAA"
  units of measure: "s⁻¹"
  relation symbol: "<"
  result number: "1e-05"
- residue string: "AUAAAAGCGCCAGAACUACAGAAAUGUAGUUGACGAGGAGGAGGUUUAUCGAAAUUUCGGCGGAUGCCUACAAA"
  units of measure: "s⁻¹"
  relation symbol: "="
  result number: 0.000107
- residue string: "AUAAAAGCCCCAGAACUACAGAAAUGUAGUUGACGAGGAGGAGGUUUAUCGAAUUUACGGCGGAUGCCUCCAAA"
  units of measure: "s⁻¹"
  relation symbol: "<"
  result number: "1e-05"
- residue string: "AUAAAAGCGCCAGAACUACAGAAAUGUAGUCGACGAGGAGGAGGUUUAUCGAAUUUUGGGCGGAUGCCUCCAAA"
  units of measure: "s⁻¹"
  relation symbol: "="
  result number: "2.98e-05"
- residue string: "AUAAAAGCGCAAGAACUACAGAAAUGUAGUUGACGAGGAGGAGGCUUAUCGAAUUUUCGGCGGAUGCCUCCAAA"
  units of measure: "s⁻¹"
  relation symbol: "<"
  result number: "1e-05"
- residue string: "AUAAAAGCGCGACAGCUACAGAAAUGUAGUUGACGAGGAGGAUGUUUAUCGAAUUUUCGGCGCAUGCCUCCAAA"
  units of measure: "s⁻¹"
  relation symbol: "<"
  result number: "1e-05"
